assayTarget: CXCR2 receptor (Homo sapiens)
Construct: β-galactosidase enzyme-complementation fragment (PathHunter system); host or cells: HEK293
Sequence (P25025 whole entry, the tested form may be a part): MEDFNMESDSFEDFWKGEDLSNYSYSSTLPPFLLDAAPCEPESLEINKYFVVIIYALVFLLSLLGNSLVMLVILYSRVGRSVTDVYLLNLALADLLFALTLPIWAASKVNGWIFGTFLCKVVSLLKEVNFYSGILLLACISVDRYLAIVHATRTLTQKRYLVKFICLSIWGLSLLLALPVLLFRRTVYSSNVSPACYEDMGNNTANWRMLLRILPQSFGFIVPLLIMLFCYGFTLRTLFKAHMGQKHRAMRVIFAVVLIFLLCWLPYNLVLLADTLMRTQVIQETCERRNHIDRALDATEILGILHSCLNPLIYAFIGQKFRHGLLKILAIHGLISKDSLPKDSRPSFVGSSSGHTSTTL
assaySummary: β-arrestin 2 recruitment test after CXCL8 activation, PathHunter HEK293-CXCR2 cells
Format: cell-based
measurementSetup: stimulation with CXCL8 (10 nM), read-out: CXCR2 (nM), IC50 = half inhibition concentration
The molecules listed here are annotated with their IC50.

| molecule | u | IC50 |
| --- | --- | --- |
| Cc1ccc(C(Nc2c(Nc3cccc(C(=O)N(C)C)c3O)c(=O)c2=O)C2CCSCC2)o1 (centres unmarked) [Example 2] | nM | 111 |
| Cc1ccc(C(Nc2c(Nc3cccc(C(=O)N(C)C)c3O)c(=O)c2=O)C2CCOCC2)o1 (centres unmarked) [Example 1] | nM | 212 |
